tested on: NCI-H460; experiment: Cytotoxicity against human NCI-H460 cells after 72 hrs by SRB assay; assay type: functional, cell-based; settings: NCI-H460, 72 h
pIC50: −log10 of the molar value.
We begin with a simple list: items and their reported pIC50.
EXPERIMENTAL_ENDPOINT: pIC50

# MOLECULE, TARGET_SYSTEM, VALUE_RELATION_SIGN, ENDPOINT_VALUE
records = [
    ("COc1cc(C2CC(c3ccc(SC)cc3)=NN2C(C)=O)cc(OC)c1OC (stereo not given)", "NCI-H460", "=", 5.10),
    ("CCN(CC)c1ccc(C2CC(c3cc(OC)c(OC)c(OC)c3)=NN2C(C)=O)cc1 (stereo not given)", "NCI-H460", "=", 4.86),
    ("COc1cc(C2CC(c3ccc(N(C)C)cc3)=NN2C(C)=O)cc(OC)c1OC (stereo not given)", "NCI-H460", "=", 5.74),
    ("COc1cc(C2CC(c3ccc(F)cc3)=NN2C(C)=O)cc(OC)c1OC (stereo not given)", "NCI-H460", "=", 4.92),
    ("CCN(CC)c1ccc(C2=NN(C(C)=O)C(c3cc(OC)c(OC)c(OC)c3)C2)cc1 (stereo not given)", "NCI-H460", "=", 6.01),
    ("COc1cc(C2CC(c3ccc(C)cc3)=NN2C(C)=O)cc(OC)c1OC (stereo not given)", "NCI-H460", "=", 5.89),
    ("COc1cc(C2=NN(C(C)=O)C(c3cc(OC)c(OC)c(OC)c3)C2)ccc1O (stereo not given)", "NCI-H460", "=", 6.68),
    ("COc1cc(C2CC(c3ccc(C)cc3)=NN2C(=O)COC(C)=O)cc(OC)c1OC (stereo not given)", "NCI-H460", "=", 5.48),
    ("COc1cc(C2CC(c3ccc(N(C)C)cc3)=NN2)cc(OC)c1OC (stereo not given)", "NCI-H460", "<", 4.70),
    ("COc1cc(C2=NN(C(=O)COC(C)=O)C(c3cc(OC)c(OC)c(OC)c3)C2)ccc1O (stereo not given)", "NCI-H460", "=", 5.35),
]

---

We begin with a simple list: items and their reported TGI.
tested on: HT-29; test: Growth inhibition of human HT-29 cells after 48 hrs by SRB assay; type: functional; settings: HT-29, 48 h, read-out: pTGI (converted)

# COMPOUND, TGI
rows = [
    ("COc1cc(C2=NN(C(C)=O)C(c3cc(OC)c(OC)c(OC)c3)C2)ccc1O (stereo not drawn)", "> 100 µM"),
    ("COc1cc(C2=NNC(c3ccc(N(C)C)cc3)C2)cc(OC)c1OC (stereo not drawn)", "> 100 µM"),
    ("COc1cc(C2CC(c3cccc(O)c3)=NN2C(C)=O)cc(OC)c1OC (stereo not drawn)", "> 100 µM"),
    ("COc1ccc(C2CC(c3cc(OC)c(OC)c(OC)c3)=NN2)cc1 (stereo not drawn)", "> 100 µM"),
    ("CCN(CC)c1ccc(C2CC(c3cc(OC)c(OC)c(OC)c3)=NN2)cc1 (stereo not drawn)", "> 100 µM"),
    ("CCN(CC)c1ccc(C2=NN(C(C)=O)C(c3cc(OC)c(OC)c(OC)c3)C2)cc1 (stereo not drawn)", "1.58 µM"),
    ("COc1cc(C2CC(c3ccc(N(C)C)cc3)=NN2C(C)=O)cc(OC)c1OC (stereo not drawn)", "15.8 µM"),
    ("COc1ccc(/C=C\\c2cc(OC)c(OC)c(OC)c2)cc1O", "6.31 µM"),
]

---

system: K562; assay: Growth inhibition of human K562 cells after 48 hrs by SRB assay; format: functional; details: K562, 48 h, read-out: pTGI (converted)
EXPERIMENTAL_ENDPOINT: TGI

# MOLECULE, ENDPOINT_VALUE
data = [
    ("COc1ccc(C2CC(c3cc(OC)c(OC)c(OC)c3)=NN2)cc1 (centres undefined)", "> 100 µM"),
    ("COc1cc(C2=NNC(c3ccc(N(C)C)cc3)C2)cc(OC)c1OC (centres undefined)", "79.4 µM"),
    ("CCN(CC)c1ccc(C2=NN(C(C)=O)C(c3cc(OC)c(OC)c(OC)c3)C2)cc1 (centres undefined)", "> 100 µM"),
    ("COc1cc(C2CC(c3cccc(O)c3)=NN2C(C)=O)cc(OC)c1OC (centres undefined)", "63.1 µM"),
    ("CCN(CC)c1ccc(C2CC(c3cc(OC)c(OC)c(OC)c3)=NN2)cc1 (centres undefined)", "12.6 µM"),
    ("COc1cc(C2CC(c3ccc(N(C)C)cc3)=NN2C(C)=O)cc(OC)c1OC (centres undefined)", "> 100 µM"),
    ("COc1cc(C2CC(c3cccc(Br)c3)=NN2C(C)=O)cc(OC)c1OC (centres undefined)", "12.6 µM"),
    ("COc1ccc(/C=C\\c2cc(OC)c(OC)c(OC)c2)cc1O [COMBRETASTATIN A4]", "2 µM"),
    ("COc1cc(C2=NN(C(C)=O)C(c3cc(OC)c(OC)c(OC)c3)C2)ccc1O (centres undefined)", "> 100 µM"),
]

---

test system: OVCAR-8; assay: Growth inhibition of human OVCAR8 cells after 48 hrs by SRB assay; type: functional; settings: OVCAR-8, 48 h
We begin with a simple list: items and their reported log10 GI50.
EXPERIMENTAL_ENDPOINT: log10 GI50 (log10 of the value in nM)

# COMPOUND, log10 GI50
records = [
    ("COc1ccc(C2CC(c3cc(OC)c(OC)c(OC)c3)=NN2)cc1 (centres undefined)", 4.40),
    ("COc1ccc(/C=C\\c2cc(OC)c(OC)c(OC)c2)cc1O [COMBRETASTATIN A4]", 1.60),
    ("COc1cc(C2CC(c3ccc(N(C)C)cc3)=NN2C(C)=O)cc(OC)c1OC (centres undefined)", 3.70),
    ("COc1cc(C2=NNC(c3ccc(N(C)C)cc3)C2)cc(OC)c1OC (centres undefined)", 3.60),
    ("CCN(CC)c1ccc(C2=NN(C(C)=O)C(c3cc(OC)c(OC)c(OC)c3)C2)cc1 (centres undefined)", 2.60),
    ("COc1cc(C2=NN(C(C)=O)C(c3cc(OC)c(OC)c(OC)c3)C2)ccc1O (centres undefined)", 2.80),
    ("COc1cc(C2CC(c3cccc(Br)c3)=NN2C(C)=O)cc(OC)c1OC (centres undefined)", 2.80),
    ("CCN(CC)c1ccc(C2CC(c3cc(OC)c(OC)c(OC)c3)=NN2)cc1 (centres undefined)", 2.60),
    ("COc1cc(C2CC(c3cccc(O)c3)=NN2C(C)=O)cc(OC)c1OC (centres undefined)", 3.70),
]

---

We begin with a simple list: items and their reported TGI.
test system: UACC-62; assay: Growth inhibition of human UACC62 cells after 48 hrs by SRB assay; type: functional; conditions: UACC-62, 48 h, read-out: pTGI (converted)

# COMPOUND, VALUE_RELATION_SIGN, TGI [µM]
records = [
    ("COc1cc(C2=NNC(c3ccc(N(C)C)cc3)C2)cc(OC)c1OC (stereo not given)", ">", 100),
    ("COc1ccc(/C=C\\c2cc(OC)c(OC)c(OC)c2)cc1O", "=", 63.1),
    ("COc1cc(C2CC(c3cccc(O)c3)=NN2C(C)=O)cc(OC)c1OC (stereo not given)", ">", 100),
    ("COc1cc(C2CC(c3cccc(Br)c3)=NN2C(C)=O)cc(OC)c1OC (stereo not given)", "=", 20),
    ("COc1cc(C2CC(c3ccc(N(C)C)cc3)=NN2C(C)=O)cc(OC)c1OC (stereo not given)", ">", 100),
]

---

test system: MOLT-4; assay: Growth inhibition of human MOLT4 cells after 48 hrs by SRB assay; type: functional; details: MOLT-4, 48 h
We begin with a simple list: items and their reported GI50.

# COMPOUND, GI50
records = [
    ("COc1cc(C2=NNC(c3ccc(N(C)C)cc3)C2)cc(OC)c1OC (centres undefined)", "3.16 µM"),
    ("COc1cc(C2CC(c3ccc(N(C)C)cc3)=NN2C(C)=O)cc(OC)c1OC (centres undefined)", "3.16 µM"),
    ("CCN(CC)c1ccc(C2CC(c3cc(OC)c(OC)c(OC)c3)=NN2)cc1 (centres undefined)", "1.26 µM"),
    ("COc1cc(C2=NN(C(C)=O)C(c3cc(OC)c(OC)c(OC)c3)C2)ccc1O (centres undefined)", "0.398 µM"),
    ("COc1ccc(C2CC(c3cc(OC)c(OC)c(OC)c3)=NN2)cc1 (centres undefined)", "5.01 µM"),
    ("COc1cc(C2CC(c3cccc(Br)c3)=NN2C(C)=O)cc(OC)c1OC (centres undefined)", "0.316 µM"),
    ("COc1cc(C2CC(c3cccc(O)c3)=NN2C(C)=O)cc(OC)c1OC (centres undefined)", "5.01 µM"),
    ("CCN(CC)c1ccc(C2=NN(C(C)=O)C(c3cc(OC)c(OC)c(OC)c3)C2)cc1 (centres undefined)", "0.251 µM"),
    ("COc1ccc(/C=C\\c2cc(OC)c(OC)c(OC)c2)cc1O [COMBRETASTATIN A4]", "0.1 µM"),
]
